Molecular target: MAO-A (Cavia porcellus, UniProt H0UVA2)
Sequence (H0UVA2 1-461): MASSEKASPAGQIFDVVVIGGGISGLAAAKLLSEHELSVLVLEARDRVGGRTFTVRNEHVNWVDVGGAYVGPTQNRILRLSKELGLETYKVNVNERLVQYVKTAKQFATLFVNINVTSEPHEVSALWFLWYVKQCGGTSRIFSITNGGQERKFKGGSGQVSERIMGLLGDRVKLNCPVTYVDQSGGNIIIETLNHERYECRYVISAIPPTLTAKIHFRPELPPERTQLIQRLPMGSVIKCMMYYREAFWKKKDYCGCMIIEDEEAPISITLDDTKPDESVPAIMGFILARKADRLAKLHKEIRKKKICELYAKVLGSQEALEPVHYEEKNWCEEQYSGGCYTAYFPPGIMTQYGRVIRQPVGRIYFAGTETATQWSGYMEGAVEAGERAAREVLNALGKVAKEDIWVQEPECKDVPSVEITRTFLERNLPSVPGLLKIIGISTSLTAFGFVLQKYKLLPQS
Experiment: MAO-A inhibition in guinea pig hippocampal homogenates in vitro
Assay type: biochemical
Parameters: by human platelets and/or guinea pig hippocampal homogenates; from tissue; host or cells: guinea pig hippocampus homogenate
Each item that follows carries a reported IC50.
The reply should be a number in µM, with the unit left off.

* C#CCN[C@@H](C)Cc1ccccc1 (single isomer, unassigned) [S(+)DMS, ent-desmethylselegiline] | 100

Consider the additional compound presented here.
Challenge: May I ask what IC50 has been recorded for C#CCN(C)[C@H](C)Cc1ccccc1 [Selegiline, reference compound] ?
Response given: 2.5
